MIC reference
- Test system: Escherichia coli
- assayInfo: Antibacterial activity against extended-spectrum beta-lactamase producing Escherichia coli 14-1 after 18 to 24 hrs by two-fold serial dilution method
- Type: functional
outcomeMeasure: MIC (µg/mL)

{"compound": "CO/N=C1/CN(c2nc3c(cc2F)c(=O)c(C(=O)O)cn3[C@@H]2C[C@@H]2F)CC1(C)CNC1CC1 (some centres undefined)", "reportedMeasurement": 16}
{"compound": "CCO/N=C1/CN(c2nc3c(cc2F)c(=O)c(C(=O)O)cn3[C@@H]2C[C@@H]2F)CC1CNC1CC1 (some centres undefined)", "reportedMeasurement": 16}
{"compound": "O=C(O)c1cn2c3c(c(N4C/C(=N/OCc5ccccc5)C(CNC5CC5)C4)c(F)cc3c1=O)OC[C@@H]2CF (some centres undefined)", "reportedMeasurement": 4}
{"compound": "C[C@H]1COc2c(N3CCN(C)CC3)c(F)cc3c(=O)c(C(=O)O)cn1c23.C[C@H]1COc2c(N3CCN(C)CC3)c(F)cc3c(=O)c(C(=O)O)cn1c23.O", "reportedMeasurement": 4}

====

- System: Escherichia coli
- assayInfo: Antibacterial activity against extended-spectrum beta-lactamase producing Escherichia coli 14-1 after 18 to 24 hrs by two-fold serial dilution method
- Type: functional
outcomeMeasure: MIC

{"compound": "CO/N=C1/CN(c2nc3c(cc2F)c(=O)c(C(=O)O)cn3C2CC2)CC1(C)CNC1CC1 (centres undefined)", "outcomeMeasure": "MIC", "reportedMeasurement": "32 µg/mL"}
{"compound": "CO/N=C1/CN(c2c(F)cc3c(=O)c(C(=O)O)cn4c3c2OC[C@@H]4C)CC1CNC1CC1 (some centres undefined)", "outcomeMeasure": "MIC", "reportedMeasurement": "> 64 µg/mL"}
{"compound": "CO/N=C1/CN(c2nc3c(cc2F)c(=O)c(C(=O)O)cn3[C@@H]2C[C@@H]2F)CC1CNC1CC1 (some centres undefined)", "outcomeMeasure": "MIC", "reportedMeasurement": "16 µg/mL"}
{"compound": "CO/N=C1/CN(c2nc3c(cc2F)c(=O)c(C(=O)O)cn3-c2nc(N)c(F)cc2F)CC1(C)CNC1CC1 (centres undefined)", "outcomeMeasure": "MIC", "reportedMeasurement": "128 µg/mL"}

====

log10(MIC) reference
- Test system: Staphylococcus epidermidis
- assayInfo: Antibacterial activity against methicillin-resistant Staphylococcus epidermidis 14-37 after 18 to 24 hrs by two-fold serial dilution method
- Format: functional
outcomeMeasure: log10(MIC) (log10 of the value in µg/mL)

{"compound": "CO/N=C1/CN(c2nc3c(cc2F)c(=O)c(C(=O)O)cn3[C@@H]2C[C@@H]2F)CC1CNC1CC1 (stereo partly specified)", "log10(MIC)": 1.81}
{"compound": "CO/N=C1/CN(c2c(F)cc3c(=O)c(C(=O)O)cn4c3c2OC[C@@H]4CF)CC1(C)CNC1CC1 (stereo partly specified)", "log10(MIC)": 1.20}
{"compound": "CO/N=C1/CN(c2c(F)cc3c(=O)c(C(=O)O)cn4c3c2OC[C@@H]4C)CC1CNC1CC1 (stereo partly specified)", "log10(MIC)": 1.81}
{"compound": "CO/N=C1/CN(c2nc3c(cc2F)c(=O)c(C(=O)O)cn3[C@@H]2C[C@@H]2F)CC1(C)CNC1CC1 (stereo partly specified)", "log10(MIC)": 0.30}
{"compound": "CC1(CNC2CC2)CN(c2nc3c(cc2F)c(=O)c(C(=O)O)cn3C2CC2)C/C1=N/OCc1ccccc1 (stereo unspecified)", "log10(MIC)": 0.30}
{"compound": "CCO/N=C1/CN(c2nc3c(cc2F)c(=O)c(C(=O)O)cn3C2CC2)CC1CNC1CC1 (stereo unspecified)", "log10(MIC)": 1.51}
{"compound": "O=C(O)c1cn(C2CC2)c2nc(N3C/C(=N/OCc4ccccc4)C(CNC4CC4)C3)c(F)cc2c1=O (stereo unspecified)", "log10(MIC)": 1.20}
{"compound": "CCO/N=C1/CN(c2nc3c(cc2F)c(=O)c(C(=O)O)cn3C2CC2)CC1(C)CNC1CC1 (stereo unspecified)", "log10(MIC)": 0.30}
{"compound": "CCO/N=C1/CN(c2c(F)cc3c(=O)c(C(=O)O)cn([C@@H]4C[C@@H]4F)c3c2OC)CC1CNC1CC1 (stereo partly specified)", "log10(MIC)": 0.90}
{"compound": "CO/N=C1/CN(c2nc3c(cc2F)c(=O)c(C(=O)O)cn3C2CC2)CC1(C)CNC1CC1 (stereo unspecified)", "log10(MIC)": 0.60}
{"compound": "Nc1nc(-n2cc(C(=O)O)c(=O)c3cc(F)c(N4C/C(=N/OCc5ccccc5)C(CNC5CC5)C4)nc32)c(F)cc1F (stereo unspecified)", "log10(MIC)": 2.11}
{"compound": "C[C@H]1COc2c(N3C/C(=N/OCc4ccccc4)C(CNC4CC4)C3)c(F)cc3c(=O)c(C(=O)O)cn1c23 (stereo partly specified)", "log10(MIC)": 0.30}
{"compound": "O=C(O)c1cn(C2CC2)c2cc(N3CCNCC3)c(F)cc2c1=O", "log10(MIC)": 2.11}
{"compound": "CCO/N=C1/CN(c2nc3c(cc2F)c(=O)c(C(=O)O)cn3[C@@H]2C[C@@H]2F)CC1CNC1CC1 (stereo partly specified)", "log10(MIC)": 1.20}
{"compound": "C[C@H]1COc2c(N3CCN(C)CC3)c(F)cc3c(=O)c(C(=O)O)cn1c23.C[C@H]1COc2c(N3CCN(C)CC3)c(F)cc3c(=O)c(C(=O)O)cn1c23.O", "log10(MIC)": 1.81}

====

- Test system: Klebsiella pneumoniae
- assayInfo: Antibacterial activity against extended-spectrum beta-lactamase producing Klebsiella pneumoniae 14-17 after 18 to 24 hrs by two-fold serial dilution method
- Assay type: functional
MIC reference
outcomeMeasure: MIC

{"compound": "CO/N=C1/CN(c2nc3c(cc2F)c(=O)c(C(=O)O)cn3[C@@H]2C[C@@H]2F)CC1(C)CNC1CC1 (stereo partly drawn)", "testedOn": "Klebsiella pneumoniae", "outcomeMeasure": "MIC", "reportedMeasurement": "64 µg/mL"}
{"compound": "O=C(O)c1cn2c3c(c(N4C/C(=N/OCc5ccccc5)C(CNC5CC5)C4)c(F)cc3c1=O)OC[C@@H]2CF (stereo partly drawn)", "testedOn": "Klebsiella pneumoniae", "outcomeMeasure": "MIC", "reportedMeasurement": "64 µg/mL"}
{"compound": "CO/N=C1/CN(c2nc3c(cc2F)c(=O)c(C(=O)O)cn3-c2nc(N)c(F)cc2F)CC1CNC1CC1 (stereo not drawn)", "testedOn": "Klebsiella pneumoniae", "outcomeMeasure": "MIC", "reportedMeasurement": "64 µg/mL"}
{"compound": "O=C(O)c1cn(C2CC2)c2cc(N3CCNCC3)c(F)cc2c1=O", "testedOn": "Klebsiella pneumoniae", "outcomeMeasure": "MIC", "reportedMeasurement": "0.5 µg/mL"}
{"compound": "CCO/N=C1/CN(c2nc3c(cc2F)c(=O)c(C(=O)O)cn3C2CC2)CC1CNC1CC1 (stereo not drawn)", "testedOn": "Klebsiella pneumoniae", "outcomeMeasure": "MIC", "reportedMeasurement": "8 µg/mL"}
{"compound": "CO/N=C1/CN(c2c(F)cc3c(=O)c(C(=O)O)cn4c3c2OC[C@@H]4CF)CC1(C)CNC1CC1 (stereo partly drawn)", "testedOn": "Klebsiella pneumoniae", "outcomeMeasure": "MIC", "reportedMeasurement": "32 µg/mL"}
{"compound": "CCO/N=C1/CN(c2nc3c(cc2F)c(=O)c(C(=O)O)cn3-c2nc(N)c(F)cc2F)CC1(C)CNC1CC1 (stereo not drawn)", "testedOn": "Klebsiella pneumoniae", "outcomeMeasure": "MIC", "reportedMeasurement": "> 128 µg/mL"}
{"compound": "O=C(O)c1cn([C@@H]2C[C@@H]2F)c2nc(N3C/C(=N/OCc4ccccc4)C(CNC4CC4)C3)c(F)cc2c1=O (stereo partly drawn)", "testedOn": "Klebsiella pneumoniae", "outcomeMeasure": "MIC", "reportedMeasurement": "64 µg/mL"}

====

- System: Staphylococcus epidermidis
- assayInfo: Antibacterial activity against methicillin-resistant Staphylococcus epidermidis 14-37 after 18 to 24 hrs by two-fold serial dilution method
- Assay type: functional
MIC reference

{"compound": "CCO/N=C1/CN(c2nc3c(cc2F)c(=O)c(C(=O)O)cn3-c2nc(N)c(F)cc2F)CC1(C)CNC1CC1 (stereo not drawn)", "valueUnits": "µg/mL", "MIC": 128}
{"compound": "CC1(CNC2CC2)CN(c2nc3c(cc2F)c(=O)c(C(=O)O)cn3[C@@H]2C[C@@H]2F)C/C1=N/OCc1ccccc1 (stereo partly drawn)", "valueUnits": "µg/mL", "MIC": 16}
{"compound": "CO/N=C1/CN(c2c(F)cc3c(=O)c(C(=O)O)cn4c3c2OC[C@@H]4C)CC1(C)CNC1CC1 (stereo partly drawn)", "valueUnits": "µg/mL", "MIC": 2}
{"compound": "CO/N=C1/CN(c2nc3c(cc2F)c(=O)c(C(=O)O)cn3-c2nc(N)c(F)cc2F)CC1CNC1CC1 (stereo not drawn)", "valueUnits": "µg/mL", "MIC": 64}
{"compound": "O=C(O)c1cn2c3c(c(N4C/C(=N/OCc5ccccc5)C(CNC5CC5)C4)c(F)cc3c1=O)OC[C@@H]2CF (stereo partly drawn)", "valueUnits": "µg/mL", "MIC": 2}
{"compound": "CCO/N=C1/CN(c2nc3c(cc2F)c(=O)c(C(=O)O)cn3[C@@H]2C[C@@H]2F)CC1(C)CNC1CC1 (stereo partly drawn)", "valueUnits": "µg/mL", "MIC": 2}
{"compound": "CCO/N=C1/CN(c2c(F)cc3c(=O)c(C(=O)O)cn4c3c2OC[C@@H]4C)CC1(C)CNC1CC1 (stereo partly drawn)", "valueUnits": "µg/mL", "MIC": 4}
{"compound": "CO/N=C1/CN(c2nc3c(cc2F)c(=O)c(C(=O)O)cn3C2CC2)CC1CNC1CC1 (stereo not drawn)", "valueUnits": "µg/mL", "MIC": 32}
